Source listed as PubChem BioAssay (NCI).

Parameter: growth inhibition. Scope: all listed entries.
Assay: NCI Yeast Anticancer Drug Screen. Data for the rad50EPP+ strain (AID 151);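 also: 0% = growth of vehicle-treated control cultures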
Details: S. cerevisiae rad50 mutant strain, at 1.2 µM, stronger effect = higher value
About 79,000 compounds went through this panel and 15% of them were active in at least one assay; those are over-represented in the sample as a whole. Calls of active or inactive are those of the source. Rule as the data show it: active = growth inhibition above about 70%; inactive = the rest.

Take a look at these entries with their results.
# compound, growth inhibition
records = [
    ("CC1CC(Br)C(=O)O1 (configuration not stated)", "12% (inactive)"),
    ("C[N+](CCCl)(CCCl)Cc1cccc2cccc([N+](=O)[O-])c12", "20% (inactive)"),
    ("CCOP(=O)(CC(C)P(=O)(OCC)OCC)OCC.C[CH2][Sn]([Cl])([Cl])[CH2]C (configuration not stated)", "-1% (inactive)"),
]

## Task Consider the compound shown here: CC[C@]1(O)CC(OC2CC(N(C)C)C(O)C(C)O2)c2c(cc3c(c2O)C(=O)c2c(O)cccc2C3=O)[C@@H]1C(=O)OC (some centres not stated) What is its recorded growth inhibition?
## Result 6% (inactive)

## Task Quick one: growth inhibition of C/C(=N\NC(N)=O)C(CN1CCOCC1)C(c1ccccc1)c1c(O)c2ccccc2oc1=O (configuration not stated) ?
## Result -2% (inactive)

## Task Requested field: growth inhibition. Item: CC1CN=C(Nc2ccccc2)S1 (configuration not stated)
## Result -52% (inactive)

## Task What does the record list as growth inhibition for COC1CC(CC2CCC(C)C(C(C)C(=O)O)O2)OC2(OC(C)(C3CCC(C)(C4OC(C5OC(O)(CO)C(C)CC5C)CC4C)O3)CC2C)C1C (configuration not stated) ?
## Result -12% (inactive)
